experiment: chemical genetic growth profiling, strain panel (AID 1159580);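 note: tested at 20 µM; growth read once vehicle control cultures reached saturation at 30 °C; 1 = growth at the plate median or of vehicle wells; lower values mean less growth of the strain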; conditions: S. cerevisiae deletion strains, growth OD, locus YJL129C, strain trk1, stronger effect = lower value
The whole screen tested about 5,500 compounds, of which about 2,000 (36%) were called active. Another 18% or so got no clear call; they are omitted. The list shows a part of the results.
ASSAY METRIC: normalized growth

Cc1cc(=O)c2c(O)cc(O)c(C)c2o1 | 0.901 (inactive)
C1CCc2nnnn2CC1 | 1.01 (inactive)
CCC1(c2ccccc2)C(=O)NCNC1=O | 0.967 (inactive)
CCC1(c2ccc(N)cc2)CCC(=O)NC1=O (stereo unspecified) | 0.928 (inactive)
CC1(C)C2CC[C@]3(C)C(C(=O)C=C4[C@H]5C[C@@](C)(C(=O)O)CC[C@]5(C)CC[C@]43C)[C@@]2(C)CC[C@@H]1O (stereo partly specified) | 0.921 (inactive)
CO[C@H]1C[C@H](O[C@H]2[C@H](C)[C@@H](OC3O[C@H](C)C[C@H](N(C)C)[C@H]3O)[C@@H](C)C[C@]3(CO3)C(=O)[C@H](C)[C@@H](O)[C@@H](C)[C@@H](C)OC(=O)[C@@H]2C)O[C@@H](C)[C@@H]1O (stereo partly specified) | 1 (inactive)
COc1cc(OC)c2c(c1)O[C@H](c1ccc(OC)c(OC)c1)[C@@H](O)C2 | 0.965 (inactive)
c1ccc(CC2=NCCN2)cc1 | 1.03 (inactive)
CC(=O)O[C@]1(C(C)=O)CCC2C3C=C(C)C4=CC(=O)CCC4(C)C3CCC21C (stereo partly specified) | 0.854 (active)
COC(=O)C1=COC(OC2OC(CO)C(O)C(O)C2O)C2C(C)CC(=O)C12O (stereo unspecified) | 1 (inactive)
CC(C)(C)CC(C)(C)c1ccc(OCCOCC[N+](C)(C)Cc2ccccc2)cc1 | 0.079 (active)
CC(C)N(C(=O)CCl)c1ccccc1 | 1.23 [resistant] (active)
NC(N)=NOCC[C@H](N)C(=O)O | 1.03 (inactive)
COc1ccc2c(c1)OC[C@@H](Cc1ccc(OC)c(OC)c1)[C@H]2O | 0.956 (inactive)
NCC1CCCCC1CC(=O)O (stereo unspecified) | 1.04 (inactive)
CCCCOc1ccc(CC(=O)NO)cc1 | 0.966 (inactive)
O=C(O)C1CC([C@@H]2CCCCN2)CN2CCCCC12 (stereo partly specified) | 0.973 (inactive)
c1ccc(CN(CC2=NCCN2)c2ccccc2)cc1 | 1.03 (inactive)
O=[N+]([O-])O[C@H]1CO[C@H]2[C@@H]1OC[C@H]2O[N+](=O)[O-] | 0.991 (inactive)
C=CCc1ccc2c(c1)OCO2 | 1.01 (inactive)
CC(=O)OCC(CCn1cnc2cnc(N)nc21)COC(C)=O | 0.973 (inactive)

---

We begin with a simple list: items and their reported normalized growth.
assay: chemical genetic growth profiling, strain panel (AID 1159580);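 note: tested at 20 µM; growth read once vehicle control cultures reached saturation at 30 °C; 1 = growth at the plate median or of vehicle wells; lower values mean less growth of the strain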; conditions: S. cerevisiae deletion strains, growth OD, locus YNL322C, strain KRE1, stronger effect = lower value
In all, about 5,500 compounds went through this assay and about 2,000 (36%) were called active. About 18% were inconclusive and are not listed. This is one part of the list.
ASSAY METRIC: normalized growth

COC(=O)c1cc(OC)c(OC)c(OC)c1NS(=O)(=O)c1cc(OC)ccc1OC | 0.996
NCC1(CC(=O)O)CCCCC1 | 0.998
CCCC[N+]1(C)C2CC(OC(=O)[C@H](CO)c3ccccc3)CC1C1OC12 (some centres undefined) | 0.998
O=C(Nc1ccccc1C(=O)NC1CCCCNC1=O)c1cccs1 (centres undefined) | 1
CN1Cc2c(ccc3c2OCO3)C2C(O)Cc3cc4c(cc3C21)OCO4 (centres undefined) | 0.999
Cc1ccc2cc(C)c(C)cc2c1 | 0.985
Cc1ccc2c(c1)CC[C@H]1CC(=O)CC[C@]21C | 1
CCOC(=O)C1=C(C)NC(=S)NC1c1cccc(O)c1 (centres undefined) | 0.997
CCCCCCCCCCCCCCCCCCOC[C@H](COP(=O)([O-])OCC[N+](C)(C)C)OC | 0.988
OCc1ccccc1O[C@@H]1O[C@H](CO)[C@@H](O)[C@H](O)[C@H]1O | 0.991
COC(=O)COc1cc(Cl)c(Cl)cc1Cl | 0.977
CC(=O)Nc1cccc(-n2nnc(SCc3ccccc3)n2)c1 | 1.01
CCOC(=O)COc1ccc2c(c1)OC(C)(C)CC2=O | 1
O=C(CSc1ccc(C(F)(F)F)cn1)N1CCc2c([nH]c3ccccc23)C1C(F)(F)F (centres undefined) | 0.991
O=C(O)COc1cc(Cl)c(Cl)cc1Cl | 1.01
COC(=O)[C@@H]1C(O)CC[C@H]2CN3CCc4c([nH]c5ccccc45)[C@@H]3C[C@@H]21 (some centres undefined) | 0.99
O=C(/C=C/C=C/c1ccc2c(c1)OCO2)N1CCCCC1 | 0.981
COc1ccc(-c2coc3c(OC)c(OC)cc(OC)c3c2=O)cc1 | 0.985
O=C(O)[C@@H]1C[C@H](C(=O)O)N1 | 0.987
CC1(C)C2CC[C@]3(C)C(C(=O)C=C4[C@@H]5C[C@@](C)(C(=O)O)CC[C@]5(C)CC[C@]43C)[C@@]2(C)CC[C@@H]1OC(=O)CCC(=O)O (some centres undefined) | 0.99
NC[C@@H]1O[C@H](O[C@@H]2[C@@H](CO)OC(O[C@@H]3[C@@H](O)[C@H](N)C[C@H](N)[C@H]3OC3O[C@H](CN)[C@@H](O)[C@H](O)[C@H]3N)[C@@H]2O)[C@H](N)[C@@H](O)[C@@H]1O (some centres undefined) | 0.997
COc1ccc(OC)c(C(=O)c2cc(OC)c(OC)c(OC)c2)c1 | 0.995
COc1cc(C(O)C(=O)O)ccc1O (centres undefined) | 0.998
COc1ccc2c(c1)[C@@]1(C)CCC(=O)C[C@H]1CC2 | 0.989
CCCCCC(C)N (centres undefined) | 1.01
COc1cccc2c1CCC1CC(=O)CCC21C (centres undefined) | 0.982
NC(=O)N1c2ccccc2CC(=O)c2ccccc21 | 0.998
CC(=C(CCOP(=O)(O)O)SC(=O)c1ccccc1)N(C=O)Cc1cnc(C)nc1N | 1.01
CN1C(=O)CN=C(c2ccccc2)c2ccccc21 | 0.991
Cc1ccc(Oc2ccc(C)cc2)cc1 | 0.993
CN(C)/C=C1\C(=O)c2ccccc2N(C)S1(=O)=O | 0.999
Oc1ccc(O)cc1 | 1.02
COc1ccc(-c2coc3c(OC)c(OC)ccc3c2=O)cc1 | 0.98
CC(C)(C)OC(=O)N1CCC(C(N)=O)CC1 | 1.02

---

experiment: chemical genetic growth profiling, strain panel (AID 1159580);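 note: tested at 20 µM; growth read once vehicle control cultures reached saturation at 30 °C; 1 = growth at the plate median or of vehicle wells; lower values mean less growth of the strain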; details: S. cerevisiae deletion strains, growth OD, locus YER155C, strain BEM2 (second series), stronger effect = lower value
Screen size: about 5,500 compounds; about 2,000 (36%) were called active. Roughly 18% stayed inconclusive and do not appear here. The list shows a part of the results.
We begin with a simple list: items and their reported normalized growth.
ASSAY METRIC: normalized growth

COc1ccc2c(c1)[C@@]1(C)CCC(=O)C[C@H]1CC2 | 0.899
O=[N+]([O-])O[C@H]1CO[C@H]2[C@@H]1OC[C@H]2O[N+](=O)[O-] | 0.998
Cc1ccc2c(c1)CC[C@H]1CC(=O)CC[C@]21C | 0.978
CCc1ccc(CCOc2ccc(CC3SC(=O)NC3=O)cc2)nc1 (stereo not given) | 1.05
CC[C@H]1OC(=O)C[C@@H](O)[C@H](C)[C@@H](O[C@@H]2O[C@H](C)[C@@H](O[C@H]3C[C@@](C)(O)[C@@H](O)[C@H](C)O3)[C@H](N(C)C)[C@H]2O)[C@@H](CC=O)C[C@@H](C)C(=O)/C=C/C(C)=C/[C@@H]1CO[C@@H]1O[C@H](C)[C@@H](O)[C@@H](OC)[C@H]1OC | 0.993
CCC1(c2ccc(N)cc2)CCC(=O)NC1=O (stereo not given) | 0.878
CC(C)(C)CC(C)(C)c1ccc(OCCOCC[N+](C)(C)Cc2ccccc2)cc1 | 0.0937
COc1cc(O)c2c(=O)cc(C)oc2c1CC=C(C)C | 0.903
NC(=O)N1c2ccccc2CC(=O)c2ccccc21 | 0.97
CC(C(=O)O)c1ccc2c(c1)[nH]c1ccc(Cl)cc12 (stereo not given) | 0.952

---

We begin with a simple list: items and their reported normalized growth.
test: chemical genetic growth profiling, strain panel (AID 1159580);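 note: tested at 20 µM; growth read once vehicle control cultures reached saturation at 30 °C; 1 = growth at the plate median or of vehicle wells; lower values mean less growth of the strain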; details: S. cerevisiae deletion strains, growth OD, locus YNL183C, strain NPR1, stronger effect = lower value
About 2,000 (36%) of roughly 5,500 compounds were called active. Not shown: some 18% with an inconclusive outcome. The list shows a part of the results.
ASSAY METRIC: normalized growth

CC[C@H]1OC(=O)C[C@@H](O)[C@H](C)[C@@H](O[C@@H]2O[C@H](C)[C@@H](O[C@H]3C[C@@](C)(O)[C@@H](O)[C@H](C)O3)[C@H](N(C)C)[C@H]2O)[C@@H](CC=O)C[C@@H](C)C(=O)/C=C/C(C)=C/[C@@H]1CO[C@@H]1O[C@H](C)[C@@H](O)[C@@H](OC)[C@H]1OC | 0.922
C/C(=N/NC(N)=S)c1ccc(Oc2c(Cl)cncc2Cl)cc1 | 0.996
CNc1ccccc1C(=O)N1CCc2c([nH]c3ccccc23)C1=O | 1.01
COC(=O)[C@@H]1C(O)CC[C@H]2CN3CCc4c([nH]c5ccccc45)[C@@H]3C[C@@H]21 (some centres undefined) | 0.973
